Assay: AP1 Signaling Pathway (AID 357);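 note: ME-180 reporter cells stimulated with EGF at its EC50 level; % is set by controls: 0 for no effect and ±100 for the full control effect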
Conditions: ME-180 (cervical carcinoma) AP-1-bla reporter, EGF-induced, beta-lactamase ratio, 5 h; at 7.69 µM (top of the series) unless noted
Results filed as inconclusive are left out.
Give measured activity change, negative = inhibition for each item. Keep answers brief.
One number for each entry, in %.

Example cases with answers are listed next.
Answer with reported activity change, negative = inhibition of CNc1nc(-c2ccc(N(C)C)cc2)nc2ccccc12
15.8

Answer with reported activity change, negative = inhibition of COc1ccc(Oc2ncc3nc(-c4ccccc4)c(=O)n(Cc4cccs4)c3n2)cc1
-8.46

Answer with reported activity change, negative = inhibition of CCNc1ncc2nc(C)c(=O)n(CCOC)c2n1
-1.39

Answer with reported activity change, negative = inhibition of O=C(c1cccc(F)c1)N1CCC2(CCCN(c3ccncc3)C2)CC1
8.58

For each listed entry, give its activity change, negative = inhibition.
1. Cc1cnc(CNc2nc(-c3ccc(C(=O)N(C)C)cc3)nc3ccccc23)cn1
2. O=C(c1ccco1)N1CCC2(CC1)CCN(c1ccccn1)CC2

-29.1
-7.81

For each listed entry, give its activity change, negative = inhibition.
1. COc1ccccc1CN1CCC2(CC1)CCN(C(=O)c1cc(C(F)(F)F)cc(C(F)(F)F)c1)CC2
2. O=c1c(-c2ccc(F)c(F)c2)nc2cncnc2n1Cc1ccccc1
3. COc1ccccc1CCn1c(=O)c(-c2ccc(F)c(F)c2)nc2cncnc21

1: -13.2; 2: -0.964; 3: -18.1

* * *

Experiment: qHTS Assay for Lipid Storage Modulators (AID 1519)
Conditions: Drosophila S3 cells, BODIPY lipid droplet/cell ratio, laser cytometry; measured here: lipid channel max response; cells loaded with oleic acid
Inconclusive results are not listed.
Give measured max response for each item. Keep answers brief.
In your response, put the unit directly after the numeric value.

Example cases with answers are listed next.
Answer with reported max response of Cc1noc(C)c1C(=O)N1CCC[C@@]2(CCN(C(c3ccccc3)c3ccccc3)C2)C1
16.6%

Answer with reported max response of COC(=O)N1CCC2(CC1)CCN(C(c1ccccc1)c1ccccc1)CC2
12.4%

Answer with reported max response of COc1ccccc1CN1CCCC2(CCN(C(=O)c3c(C)noc3C)CC2)C1
17.9%

For each listed entry, give its max response.
1. CN(C)[C@H]1C(=O)C(C(=O)NCN2CCCC2)=C(O)[C@]2(O)C(=O)C3=C(O)c4c(O)cccc4[C@@](C)(O)[C@H]3C[C@@H]12
2. CS(=O)(=O)N1CCC[C@@]2(CCN(c3ccncc3)C2)C1
3. O=C(c1cnccn1)N1CCC2(CCN(Cc3ccccc3)CC2)CC1
4. Cn1c(=O)c(-c2ccccc2)nc2cnc(N3CCNCC3)nc21
5. COc1ccc(C(=O)N2CCC3(CC2)CCN(c2ccccc2)CC3)cc1

-16.5%
-16.3%
14.3%
28.4%
17.4%

For each listed entry, give its max response.
1. CC(C)CN1CCCC2(CCN(C(=O)c3csnn3)CC2)C1
2. COc1ccc(NC(=O)N2CC3(CCN(C(=O)c4cc(C(F)(F)F)cc(C(F)(F)F)c4)CC3)C2)cc1

1: 21%; 2: 18.4%

For each listed entry, give its max response.
1. CNc1nc(-c2ccccc2OC)nc2ccccc12
2. CN1CCN(c2ncncc2-c2ccc(N(C)C)cc2)CC1
3. CN1CCCC2(CCN(C(=O)c3cc(C(F)(F)F)cc(C(F)(F)F)c3)CC2)C1
4. CN(C)Cc1ccccc1-c1cc(-n2ccnc2)ncn1

-7.86%
21.2%
23.1%
14.2%

For each listed entry, give its max response.
1. O=C1C=CC2=C3c4cc(O)c(O)cc4CC3(O)COC2=C1O (centres undefined)
2. N#Cc1ccccc1-c1ccc2ncnc(NCc3cccs3)c2c1
3. COc1ccccc1-c1ccc2ncnc(NCc3ccccc3)c2c1
4. CN1C(=O)CC[C@@H]1c1cccnc1

21%
-0.129%
-27.8%
2.29%

Answer with reported max response of COc1cc(-c2coc3cc(OCc4ccccc4)c(OC)c(O)c3c2=O)cc(O)c1OC
-4.66%

* * *

Target: Cytochrome P450 1A2 (Homo sapiens)
Assay: p450-cyp1a2 (AID 410)
Conditions: recombinant CYP1A2, luciferin-ME demethylation, luminescence; series mostly up to 57 µM
Results filed as inconclusive are left out. Activity calls are given as the source filed them. The call rests on the fitted dose curve.
Outcomes you can answer with include only these: active, inactive

Here are 4 compounds together with their reported answers.
Please let me know the test result on file for Cc1cccc(CNc2ncncc2-c2ccccc2Cl)c1 .
active

Please let me know the test result on file for O=C(Nc1cccc(F)c1)N1CC[C@@]2(CCCN(C(=O)c3cnccn3)C2)C1 .
inactive

Please let me know the test result on file for Cc1noc(C)c1-c1nc(N2CCOCC2)c2ccccc2n1 .
active

Please let me know the test result on file for CS(=O)(=O)N1CCC2(CCN(Cc3nccs3)CC2)CC1 .
inactive

Kindly review the next compound as well.
Please let me know the test result on file for c1cncc(-c2ccc3ncnc(NC4CCNCC4)c3c2)c1 .
active

* * *

Biological target: Cytochrome P450 1A2 (Homo sapiens)
Assay: p450-cyp1a2 (AID 410)
Conditions: recombinant CYP1A2, luciferin-ME demethylation, luminescence; series mostly up to 57 µM
Results filed as inconclusive are left out. The source made the active and inactive calls. Calls come from the whole dose curve.
Outcomes you can answer with include only these: true (active), false (inactive)

Please let me know the test result on file for Cc1cnc(CNc2cc(-c3cccc(C#N)c3)ncn2)cn1 .
true

Please let me know the test result on file for COc1ccc2[nH]cc(CCNc3cc(-c4cccnc4)ncn3)c2c1 .
true

Please let me know the test result on file for COc1ccc(C(=O)N2CCC[C@@]3(CCN(Cc4ccccc4)C3)C2)cc1 .
true

Please let me know the test result on file for CN(C)Cc1ccccc1-c1cc(NCc2ccccc2)ncn1 .
false

Please let me know the test result on file for COc1cccc(-c2nc(NCc3cnc(C)cn3)c3ccccc3n2)c1 .
true

Kindly review the next compound as well.
Please let me know the test result on file for O=c1cnc2cnc(Oc3ccccc3)nc2n1C1CC1 .
true

* * *

Molecular target: Cytochrome P450 2C9 (Homo sapiens) (UniProt P11712)
Sequence (P11712 whole entry, looked up): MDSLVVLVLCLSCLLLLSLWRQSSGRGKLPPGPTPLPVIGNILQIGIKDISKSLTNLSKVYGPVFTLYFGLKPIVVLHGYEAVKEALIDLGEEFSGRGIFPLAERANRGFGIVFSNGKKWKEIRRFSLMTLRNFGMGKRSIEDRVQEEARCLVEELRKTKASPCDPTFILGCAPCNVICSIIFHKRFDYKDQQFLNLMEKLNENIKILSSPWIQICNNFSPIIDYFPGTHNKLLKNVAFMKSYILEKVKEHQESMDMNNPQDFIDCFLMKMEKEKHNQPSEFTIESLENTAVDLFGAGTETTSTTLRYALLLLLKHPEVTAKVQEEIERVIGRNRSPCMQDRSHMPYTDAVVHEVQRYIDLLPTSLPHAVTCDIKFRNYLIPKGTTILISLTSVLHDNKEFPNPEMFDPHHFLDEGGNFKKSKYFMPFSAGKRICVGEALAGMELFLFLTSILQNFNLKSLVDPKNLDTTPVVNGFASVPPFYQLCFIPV
Assay: qHTS Assay for Inhibitors and Substrates of Cytochrome P450 2C9 (AID 883); note: nearly all actives have a fitted effect of over 60% in size; note: potency is the fitted concentration of half-maximal effect
Conditions: recombinant CYP2C9, luciferin-H luminescence, 60 min; series mostly up to 57.1 µM
Experimental: NIH Molecular Libraries Screening Centers Network [MLSCN] NIH Chemical Genomics Center [NCGC] MLSCN Grant: None NCGC Assay Overview: The P450 gene superfamily is involved in the metabolism and clearance of xenobiotics. […] The luciferin is then measured by luminescence after the addition of a luciferase detection reagent. […] Inhibitors and some substrates limit the production of luciferin, and decrease measured luminescence. […]
Records with an inconclusive call do not appear. Calls of active or inactive are those of the source. Calls come from the whole dose curve; as a rule, active = well fitted inhibition curve with a large enough effect; inconclusive = small, poorly fitted or top-dose-only effect; inactive = no such curve, though single readings can be large or run the other way.
Result type: Potency

Example cases with answers are listed next.
Answer with reported Potency of COc1cc2c(cc1OC)C(=O)Cc1ccc3c(c1CN(C)CC2)OCO3
inactive

Answer with reported Potency of CCN1CCC[C@@H]1CNC(=O)c1cc(S(N)(=O)=O)ccc1OC
inactive

Answer with reported Potency of O=c1c(-c2cccc(Cl)c2)nc2cncnc2n1Cc1ccccc1Cl
3.98 µM (active)

Answer with reported Potency of O=C(Nc1cccc(F)c1)N1CC2(CCN(C(=O)c3cc(C(F)(F)F)cc(C(F)(F)F)c3)CC2)C1
inactive

Answer with reported Potency of COc1cccc(Cn2c(=O)c(-c3cccs3)nc3cnc(N4CCN(C)CC4)nc32)c1
inactive

Answer with reported Potency of Cc1ccccc1-c1ccc2ncnc(NCc3cccnc3)c2c1
0.794 µM (active)

Answer with reported Potency of CN1CCCC2(CCN(C(=O)c3cccc(F)c3)CC2)C1
20 µM (active)

Answer with reported Potency of N#Cc1ccc(CN2CCCC3(CCN(C(=O)c4ccncc4)CC3)C2)cc1
inactive

Answer with reported Potency of CCCCCN(CCCCC)C(=O)[C@H](CCC(=O)O)NC(=O)c1ccc(Cl)c(Cl)c1
3.98 µM (active)

Answer with reported Potency of COCCn1c(=O)c(-c2ccc(OC)cc2)nc2cnc(Oc3cccc(Cl)c3)nc21
0.631 µM (active)

For each listed entry, give its Potency.
1. CC1(C)Oc2ccc(C#N)cc2[C@H](N2CCCC2=O)[C@H]1O
2. COc1ccccc1CN1CC2(CCN(S(=O)(=O)c3ccccc3)CC2)C1
3. N#Cc1cccc(-c2nc3cnc(N4CCNCC4)nc3n(C3CC3)c2=O)c1
4. COc1c(O)cc2oc3cc(O)c(CC=C(C)C)c(O)c3c(=O)c2c1CC=C(C)C

inactive
inactive
0.631 µM (active)
5.01 µM (active)

* * *

Test system: CP237
Test: qHTS profiling for inhibitors of Plasmodium falciparum proliferation (AID 504749); note: nearly all actives have a fitted effect of over 60% in size
Conditions: P. falciparum in erythrocytes, SYBR Green DNA, 72 h; series mostly up to 12.8 µM
Inconclusive results are not listed. The source made the active and inactive calls. Calls follow the shape of the dose curve; as a rule, active = well fitted inhibition curve with a large enough effect; inconclusive = small, poorly fitted or top-dose-only effect; inactive = flat fitted curve, though single readings scatter.
Outcomes you can answer with include only these: y = active, n = inactive

Here are 3 molecules together with their reported answers.
Please let me know the test result on file for Cn1c(=O)c2c(ncn2C[C@@H](O)CO)n(C)c1=O .
n

Please let me know the test result on file for CN1CCCC[C@@H]1CCN1c2ccccc2Sc2ccc(S(C)=O)cc21 (some centres not stated) .
n

Please let me know the test result on file for CCN(CC)CCC[C@H](C)Nc1ccnc2cc(Cl)ccc12 .
y

More entries:
Please let me know the test result on file for CN[C@@H](CC(C)C)C(=O)N[C@@H]1C(=O)N[C@H](CC(N)=O)C(=O)N[C@@H]2C(=O)N[C@H]3C(=O)N[C@H](C(=O)N[C@H](C(=O)O)c4cc(O)cc(O)c4-c4cc3ccc4O)[C@H](O)c3ccc(c(Cl)c3)Oc3cc2cc(c3O[C@H]2O[C@@H](CO)[C@@H](O)[C@@H](O)[C@@H]2O[C@@H]2C[C@](C)(N)[C@H](O)[C@H](C)O2)Oc2ccc(cc2Cl)[C@@H]1O .
n

Please let me know the test result on file for CCN[C@@H]1C[C@H](C)S(=O)(=O)c2sc(S(N)(=O)=O)cc21 .
n

Please let me know the test result on file for CO/N=C(\C(=O)N[C@@H]1C(=O)N2C(C(=O)O)=C(COC(C)=O)CS[C@@H]12)c1csc(N)n1 .
n

Please let me know the test result on file for CN[C@@H]1[C@H](O[C@@H]2O[C@H](CO)[C@@H](N)[C@H](O)[C@@H]2O)O[C@H]2C[C@@H](N)[C@@H](O[C@H]3[C@@H](O)[C@H](O)[C@H](N)C[C@@H]3N)O[C@H]2[C@H]1O .
n
